Quick reference for Average HepG2 3 µM response( %) among some compounds
Tested on: HepG2-A16-CD81EGFP cells
Details: HepG2; the header list (r10) describes it as the 1 µM dose, averaged response (percent)
Numbers only; they are read as %.

For the compound shown here, Cl.Oc1ccc(C2NCc3ccccc3-n3cccc32)cc1Cl (centres unmarked) , give the reported Average HepG2 3 µM response( %). 100

For the compound shown here, CN(C)c1cc[n+](CC(=O)c2cccs2)cc1 , give the reported Average HepG2 3 µM response( %). 101

For the compound shown here, CCN(C(=O)CSc1nc(-c2ccc(C(C)C)cc2)no1)c1ccccc1 , give the reported Average HepG2 3 µM response( %). 102

For the compound shown here, O=C1c2cc(F)ccc2-n2c1nc1ccccc1c2=O , give the reported Average HepG2 3 µM response( %). 94

For the compound shown here, Cc1ccc(C)c(-n2c(-c3ccc(Br)cc3)csc2=NC(=O)c2ccccc2F)c1 , give the reported Average HepG2 3 µM response( %). 97
